Target: human cloned CHRM2 receptor (M2_CHO cells) (Homo sapiens)
Construct: expressed in transfected cells; host or cells: CHO-K1
Sequence (P08172 1-466): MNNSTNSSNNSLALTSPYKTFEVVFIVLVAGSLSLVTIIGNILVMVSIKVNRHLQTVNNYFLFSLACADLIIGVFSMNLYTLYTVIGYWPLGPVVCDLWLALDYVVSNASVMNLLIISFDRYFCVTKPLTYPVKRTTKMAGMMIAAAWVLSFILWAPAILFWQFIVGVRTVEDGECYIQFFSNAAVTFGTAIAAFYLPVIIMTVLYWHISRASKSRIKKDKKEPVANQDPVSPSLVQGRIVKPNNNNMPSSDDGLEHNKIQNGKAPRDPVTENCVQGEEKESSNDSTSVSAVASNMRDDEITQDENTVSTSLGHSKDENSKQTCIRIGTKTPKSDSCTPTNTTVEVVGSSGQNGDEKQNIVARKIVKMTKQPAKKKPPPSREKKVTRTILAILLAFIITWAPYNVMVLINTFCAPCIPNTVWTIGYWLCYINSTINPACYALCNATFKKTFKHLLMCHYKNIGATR
Experiment: CHRM2 Ca++ Flux Assay (agonist mode, FDSS 7000EX)
Assay type: cell-based
Conditions: Percent Activity measured to EC100 of Carbachol
Task for the reader: assign each of the following compounds its reported M2 FDSS PA.
Remember to follow the number with its unit.

Fc1ccc(OC2CCOCC2)c(C2CCN([C@@H]3CCC4(C3)CN(c3cncnc3)C4)CC2)c1 (single isomer, unassigned) [Example 10G]: 0%

// each listed compound needs a value for M2 FDSS PA
1. O=C(N1CC2(CC[C@@H](N3CCC(c4cc(F)ccc4OC4CC5(COC5)C4)CC3)C2)C1)C1(F)CC1 (single isomer, unassigned) [Example 11B]
2. Cc1nc(COc2ccccc2C2CCN([C@@H]3CCC4(C3)CN(C(=O)C3(F)CC3)C4)CC2)no1 (single isomer, unassigned) [Example 7Z]
3. OC1CCC(c2ccccc2C2CCN([C@@H]3CCC4(C3)CN(c3nnco3)C4)CC2)CC1 (single isomer, unassigned) [Example 2O]
4. O=C(N1CC2(CC[C@@H](N3CCC(c4ccccc4C4(O)CCOCC4)CC3)C2)C1)C1(F)CC1 (single isomer, unassigned) [Example 9H]
5. O=C(N1CC2(CC[C@@H](N3CCC(c4cc(F)ccc4C4CCOCC4)CC3)C2)C1)C1(F)CC1 (single isomer, unassigned) [Example 9L]
6. Fc1ccc(OC2CC3(COC3)C2)c(C2CCN([C@@H]3CCC4(C3)CN(c3cncnc3)C4)CC2)c1 (single isomer, unassigned) [Example 10F]

1. 0%
2. 0%
3. 28%
4. 0%
5. 0%
6. 0%

---

biological target: human cloned CHRM4 receptor (M4_CHO cells) (Homo sapiens, UniProt P08173); construct: expressed in transfected cells; host or cells: CHO-K1; test: CHRM4 Ca++ Flux Assay (agonist mode, FDSS 7000EX); format: cell-based; conditions: geometric mean if tested more than once, read-out: M4 FDSS EC50
Sequence (P08173 whole entry): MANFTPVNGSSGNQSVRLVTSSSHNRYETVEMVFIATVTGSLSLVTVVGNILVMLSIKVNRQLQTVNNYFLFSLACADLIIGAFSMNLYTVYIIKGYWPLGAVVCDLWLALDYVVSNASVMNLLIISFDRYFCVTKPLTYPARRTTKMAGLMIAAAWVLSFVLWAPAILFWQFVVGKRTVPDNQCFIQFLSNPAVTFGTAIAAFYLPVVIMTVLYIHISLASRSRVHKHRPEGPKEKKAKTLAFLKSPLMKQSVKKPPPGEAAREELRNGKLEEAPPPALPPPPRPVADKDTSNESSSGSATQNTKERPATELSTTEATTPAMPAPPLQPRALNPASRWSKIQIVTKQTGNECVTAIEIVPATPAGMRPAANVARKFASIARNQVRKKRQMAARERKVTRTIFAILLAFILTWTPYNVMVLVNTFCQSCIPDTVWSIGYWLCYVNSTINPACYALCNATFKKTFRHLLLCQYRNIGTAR
Note to self: use class 1 only for EC50 readings below 5 nM; a reading exactly at 5 nM still gets class 0.

Solved cases (3 shown):
COc1ccccc1C1CCN([C@@H]2CCC3(C2)CN(c2cncc(C)n2)C3)CC1 [Example 5G]: class 0
FC(F)(F)Oc1ccccc1C1CCN([C@@H]2CCC3(C2)CN(c2ncco2)C3)CC1 (single isomer, unassigned) [Example 10K]: class 0
Fc1ccc(C2CCOC2)c(C2CCN([C@@H]3CCC4(C3)CN(c3nnco3)C4)CC2)c1 (mixture of isomers) [Example 2J]: class 1

Just wondering, is EC50 of c1ccc(C2CCN([C@@H]3CCC4(C3)CN(c3cncnc3)C4)CC2)c(OC2CCOCC2)c1 [Example 1L] below 5 nM?
class 1

Criterion: EC50 strictly below 5 nM. Is it met by O=C(N1CC2(CC[C@@H](N3CCC(c4ccccc4OCCC(F)(F)F)CC3)C2)C1)C1(F)CC1 (single isomer, unassigned) [Example 7AA] ?
class 0

Determine whether this molecule shows EC50 lower than 5 nM (ties excluded): c1ccc(C2CCN([C@@H]3CCC4(C3)CN(c3ncncn3)C4)CC2)c(OCC2CCOCC2)c1 [Example 5Q]
class 0

---

molecular target: Cloned human M1 receptor (CHRM1) stably expressed in HEK293 cells (Homo sapiens); construct: expressed in transfected cells; host or cells: HEK293; assay: CHRM1 Ca++ Flux Assay (agonist mode, FDSS 7000EX); assay type: cell-based; details: Percent Activity
Provide the recorded M1 FDSS PA for the entries that follow.
Give bare numbers, in %.

O=C(N1CC2(CC[C@@H](N3CCC(c4cc(F)ccc4C4(O)CCOCC4)CC3)C2)C1)C1(F)CC1 (single isomer, unassigned) [Example 9J]: 3
O=C(N1CC2(CC[C@@H](N3CCC(c4cc(F)ccc4C4(O)CCOCC4)CC3)C2)C1)C1(F)CC1 (single isomer, unassigned) [Example 9I]: 23
O=C(N1CC2(CC[C@@H](N3CCC(c4ccccc4OC(F)(F)F)CC3)C2)C1)C1(F)CC1 (single isomer, unassigned) [Example 9A]: 43
O=C(N1CC2(CC[C@@H](N3CCC(c4cc(F)ccc4OC4CCOCC4)CC3)C2)C1)C1(F)CC1 (single isomer, unassigned) [Example 9C]: 27
O=C(N1CC2(CC[C@@H](N3CCC(c4ccccc4OCCC(F)(F)F)CC3)C2)C1)C1(F)CC1 (single isomer, unassigned) [Example 7AA]: 57

# per-item lookup of M1 FDSS PA; items listed below
1. CCOc1ccccc1C1CCN([C@@H]2CCC3(C2)CN(C(=O)C2(F)CC2)C3)CC1 (single isomer, unassigned) [Example 7S]
2. O=C(N1CC2(CC[C@@H](N3CCC(c4ccccc4OCCO)CC3)C2)C1)C1(F)CC1 (single isomer, unassigned) [Example 7N]
3. COc1ccccc1C1CCN([C@H]2CCC3(C2)CN(c2ncco2)C3)CC1 (single isomer, unassigned) [Example 10J]

1: 0; 2: 45; 3: 66

---

target: human cloned CHRM2 receptor (M2_CHO cells) (Homo sapiens); construct: expressed in transfected cells; host or cells: CHO-K1; experiment: CHRM2 Ca++ Flux Assay (agonist mode, FDSS 7000EX); assay type: cell-based; details: agonist mode; geometric mean if tested more than once; read-out: M2 FDSS EC50
Exercise: for every item that follows, state its recorded EC50.
Answers are plain numbers, in nM.

# annotated cases, reported EC50 shown
Fc1cncc(N2CC3(CC[C@@H](N4CCC(c5ccccc5C5CCOCC5)CC4)C3)C2)c1: 1770
CC(C)Oc1ccccc1C1CCN([C@@H]2CCC3(C2)CN(C(=O)C2COC2)C3)CC1: 590

Query compound follows.
Value of EC50 reported for the compound FC1(COc2ccccc2C2CCN([C@@H]3CCC4(C3)CN(c3nncs3)C4)CC2)COC1 is 30

---

Molecular target: Cloned human M1 receptor (CHRM1) stably expressed in HEK293 cells (Homo sapiens, UniProt P11229)
Sequence (P11229 1-460): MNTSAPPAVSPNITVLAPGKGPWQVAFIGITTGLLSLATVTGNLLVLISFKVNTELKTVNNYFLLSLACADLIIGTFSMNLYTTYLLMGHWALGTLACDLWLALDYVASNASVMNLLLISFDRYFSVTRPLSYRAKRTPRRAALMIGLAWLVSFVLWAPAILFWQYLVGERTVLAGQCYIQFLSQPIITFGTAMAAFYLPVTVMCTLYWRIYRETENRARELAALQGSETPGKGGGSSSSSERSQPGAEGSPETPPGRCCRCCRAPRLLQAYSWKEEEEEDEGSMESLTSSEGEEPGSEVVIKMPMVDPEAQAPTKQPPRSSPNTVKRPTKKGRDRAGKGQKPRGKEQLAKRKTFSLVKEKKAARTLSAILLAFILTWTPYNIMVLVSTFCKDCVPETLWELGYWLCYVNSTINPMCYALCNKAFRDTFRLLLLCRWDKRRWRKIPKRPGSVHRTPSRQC
Assay: CHRM1 Ca++ Flux Assay (agonist mode, FDSS 7000EX)
Settings: geometric mean if tested more than once
Could you please report measured EC50 for the items listed next?
Numbers only, in µM.

COCCOc1ccccc1C1CCN([C@@H]2CCC3(C2)CN(c2nnco2)C3)CC1: 0.059

Provide EC50 for all items below, preserving their order.
1. COCCOc1ccccc1C1CCN([C@@H]2CCC3(C2)CN(c2nncs2)C3)CC1
2. CC(C)Oc1ccccc1C1CCN([C@@H]2CCC3(C2)CN(C(=O)C2COC2)C3)CC1
3. Cc1nc(COc2ccccc2C2CCN([C@@H]3CCC4(C3)CN(C(=O)C3(F)CC3)C4)CC2)no1 (single isomer, unassigned) [Example 7Z]

[0.04, 0.024, 0.211]

---

molecular target: human cloned CHRM2 receptor (M2_CHO cells) (Homo sapiens, UniProt P08172); construct: expressed in transfected cells; host or cells: CHO-K1; assay: CHRM2 Ca++ Flux Assay (agonist mode, FDSS 7000EX); assay type: cell-based; conditions: Percent Activity measured to EC100 of Carbachol; read-out: M2 FDSS PA
PROPERTY MEASURED: Emax (%)
One number for each entry, in %.

CC(C)(O)COc1ccccc1C1CCN([C@@H]2CCC3(C2)CN(C(=O)C2COC2)C3)CC1: 0
CC(C)(O)COc1ccccc1C1CCN([C@@H]2CCC3(C2)CN(c2nnco2)C3)CC1: 12
O=C(C1COC1)N1CC2(CC[C@@H](N3CCC(c4ccccc4OCC4CC4)CC3)C2)C1: 16
CC1(COc2ccccc2C2CCN([C@@H]3CCC4(C3)CN(c3nnco3)C4)CC2)CCOCC1: 10
Cc1coc(N2CC3(CC[C@@H](N4CCC(c5ccc(F)cc5OCC(C)(C)O)CC4)C3)C2)n1: 0
c1ccc(C2CCN([C@@H]3CCC4(C3)CN(c3cncnc3)C4)CC2)c(OCC2COC2)c1: 10
COc1ccccc1C1CCN([C@@H]2CCC3(C2)CN(c2cnccn2)C3)CC1: 0
c1ccc(C2CCN([C@H]3CCC4(C3)CN(c3nnco3)C4)CC2)c(C2CCOCC2)c1 (single isomer, unassigned) [Example 10T]: 0

Provide each entry's Emax from the list below.
1. CC(C)(O)COc1ccccc1C1CCN([C@@H]2CCC3(C2)CN(c2ncns2)C3)CC1
2. O=C(C1COC1)N1CC2(CC[C@@H](N3CCC(c4ccccc4OCCOC(F)(F)F)CC3)C2)C1
3. Fc1ccc(N2CC3(CC[C@@H](N4CCC(c5ccccc5C5CCOCC5)CC4)C3)C2)cn1
4. O=C(C1COC1)N1CC2(CC[C@@H](N3CCC(c4ccccc4OCCOC4COC4)CC3)C2)C1
5. COc1ccccc1C1CCN([C@@H]2CCC3(C2)CN(c2ncon2)C3)CC1
6. c1ccc(C2CCN([C@@H]3CCC4(C3)CN(c3nnco3)C4)CC2)c(-c2ncco2)c1
7. FC1(COc2ccccc2C2CCN([C@@H]3CCC4(C3)CN(c3nncs3)C4)CC2)CCOCC1
8. CC(C)(O)COc1ccccc1C1CCN([C@@H]2CCC3(C2)CN(c2ncncn2)C3)CC1

[0, 0, 35, 17, 21, 18, 72, 0]

For every item in the list below, what is its measured Emax?
1. COCCOc1ccccc1C1CCN([C@@H]2CCC3(C2)CN(c2ccnnc2)C3)CC1
2. COC(C)(C)COc1ccccc1C1CCN([C@@H]2CCC3(C2)CN(C(=O)C2COC2)C3)CC1
3. Fc1ccc(C2CCOCC2)c(C2CCN([C@@H]3CCC4(C3)CN(c3nnco3)C4)CC2)c1
4. c1ccc(C2CCN([C@@H]3CCC4(C3)CN(c3nncs3)C4)CC2)c(OC[C@@H]2COCCO2)c1
5. O=C(N1CC2(CC[C@@H](N3CCC(c4ccccc4C4CCOCC4)CC3)C2)C1)C1(F)CC1
6. COc1ccccc1C1CCN([C@@H]2CCC3(C2)CN(c2ccc(C)nc2)C3)CC1
7. O=C(C1COC1)N1CC2(CC[C@@H](N3CCC(c4ccccc4OCC(F)F)CC3)C2)C1

[0, 16, 41, 18, 0, 0, 22]

Lab note: each molecule below needs its Emax filled in.
1. COc1ccc(F)cc1C1CCN([C@@H]2CCC3(C2)CN(c2ccnnc2)C3)CC1
2. O=C(C1COC1)N1CC2(CC[C@@H](N3CCC(c4ccccc4OC4CC4)CC3)C2)C1
3. COc1ccccc1C1CCN([C@@H]2CCC3(C2)CN(c2cncc(C)n2)C3)CC1
4. COc1ccccc1C1CCN([C@@H]2CCC3(C2)CN(c2cnc(C)cn2)C3)CC1

1. 0
2. 55
3. 0
4. 0

Would you be so kind as to report Emax for each listed record?
1. Cc1nccnc1N1CC2(CC[C@@H](N3CCC(c4ccccc4OCC(C)(C)O)CC3)C2)C1
2. COc1ccccc1C1CCN([C@@H]2CCC3(C2)CN(c2cncnc2)C3)CC1
3. c1ccc(C2CCN([C@@H]3CCC4(C3)CN(c3nncs3)C4)CC2)c(OC[C@H]2COCCO2)c1
4. COc1ccccc1C1CCN([C@@H]2CCC3(C2)CN(c2cccnc2)C3)CC1
5. COc1ccccc1C1CCN([C@@H]2CCC3(C2)CN(c2cc(Cl)nnc2Cl)C3)CC1

[0, 0, 16, 18, 0]
